Examples of compounds with documented inhibition at 10 µM follow.
Molecular target: M4 (Homo sapiens, UniProt P08173)
Construct: purchased NIMH Psychoactive Drug Screening Program (PDSP)
Sequence (P08173 whole entry): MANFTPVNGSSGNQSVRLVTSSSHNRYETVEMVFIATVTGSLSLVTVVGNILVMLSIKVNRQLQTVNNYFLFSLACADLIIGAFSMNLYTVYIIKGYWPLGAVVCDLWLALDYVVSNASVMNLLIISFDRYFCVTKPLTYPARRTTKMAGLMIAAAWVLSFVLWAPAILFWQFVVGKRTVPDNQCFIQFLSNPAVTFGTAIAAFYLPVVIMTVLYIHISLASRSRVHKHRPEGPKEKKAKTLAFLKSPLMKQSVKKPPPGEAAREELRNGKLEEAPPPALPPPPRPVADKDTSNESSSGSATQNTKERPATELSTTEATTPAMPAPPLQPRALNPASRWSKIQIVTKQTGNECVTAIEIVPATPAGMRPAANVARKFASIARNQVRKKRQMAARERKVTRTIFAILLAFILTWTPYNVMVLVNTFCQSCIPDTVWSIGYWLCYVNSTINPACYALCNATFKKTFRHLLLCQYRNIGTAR
Assay: PDSP primary binding M4
Details: primary binding, 10,000 nM; last figure of the line = mean of the 4 before it; read-out: M4, PDSP raw data, mean
Kindly format the answer as number then unit.

Known inhibition at 10 µM results, listed for orientation:
> print(dat)
                                   compound  reported.measurement
1  CC(C)c1noc(-c2ncn3c2[C@@H](C)N=C(c2ccccc2F)c2cc(Cl)ccc2-3)n1 [Compound 37]                -4.01%
2  C#Cc1ccc2c(c1)C(c1ccccc1F)=N[C@H](C)c1c(C(=S)N(C)C)ncn1-2 [Compound 33]                -3.29%
3  CCc1noc(-c2ncn3c2CN=C(c2ccccc2F)c2cc(C4CC4)ccc2-3)n1 [Compound 44]                -4.92%

Consider now this further compound.
Lookup: Quote inhibition at 10 µM reported for CCc1noc(-c2ncn3c2[C@@H](C)N=C(c2ccccc2F)c2cc(Cl)ccc2-3)n1 [Compound 36] please.
Found: -5.41%

====

Molecular target: Alpha3Beta4 (Rattus norvegicus, UniProt P04757+P12392)
Construct: purchased NIMH Psychoactive Drug Screening Program (PDSP)
Sequence (P04757 26-499, one chain of several): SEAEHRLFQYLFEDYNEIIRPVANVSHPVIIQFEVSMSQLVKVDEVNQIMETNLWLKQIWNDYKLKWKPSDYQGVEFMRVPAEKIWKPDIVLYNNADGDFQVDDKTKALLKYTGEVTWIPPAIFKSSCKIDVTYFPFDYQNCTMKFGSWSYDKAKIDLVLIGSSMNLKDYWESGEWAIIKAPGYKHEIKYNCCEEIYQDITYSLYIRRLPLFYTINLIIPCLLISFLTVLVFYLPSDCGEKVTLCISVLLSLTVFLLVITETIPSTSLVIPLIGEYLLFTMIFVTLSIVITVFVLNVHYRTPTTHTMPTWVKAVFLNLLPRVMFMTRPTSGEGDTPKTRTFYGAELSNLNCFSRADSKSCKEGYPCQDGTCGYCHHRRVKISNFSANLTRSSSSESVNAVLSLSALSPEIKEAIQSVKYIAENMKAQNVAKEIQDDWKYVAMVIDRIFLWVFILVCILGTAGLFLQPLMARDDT
Test: PDSP primary binding Alpha3Beta4
Conditions: primary binding, 10,000 nM; last figure of the line = mean of the 4 before it; read-out: Alpha3Beta4, PDSP raw data, mean
experimental_readout: inhibition at 10 µM (%)
Write down the numeric answer in % and omit the unit.

Known inhibition at 10 µM results, listed for orientation:
> print(dat)
                                        mol  reported.measurement
1  C#Cc1ccc2c(c1)C(c1ccccc1F)=N[C@H](C)c1c(C(=S)N(C)C)ncn1-2                 -0.77
2  C#Cc1ccc2c(c1)C(c1ccccn1)=N[C@@H](C)c1c(C(=O)NC)ncn1-2                  1.99

Lookup: Quote inhibition at 10 µM reported for `CCc1noc(-c2ncn3c2[C@@H](C)N=C(c2ccccc2F)c2cc(Cl)ccc2-3)n1` please.
Found: 15.6

Lookup: Quote inhibition at 10 µM reported for `C[C@H]1N=C(c2ccccc2F)c2cc(-c3ccccc3)ccc2-n2cnc(C(=O)N(C)C)c21` please.
Found: -0.77

Lookup: Quote inhibition at 10 µM reported for `CCc1noc(-c2ncn3c2[C@@H](C)N=C(c2ccccc2F)c2cc(C4CC4)ccc2-3)n1` please.
Found: 10.4

====

Biological target: 5-HT5A (Homo sapiens, UniProt P47898)
Construct: purchased NIMH Psychoactive Drug Screening Program (PDSP)
Sequence (P47898 whole entry): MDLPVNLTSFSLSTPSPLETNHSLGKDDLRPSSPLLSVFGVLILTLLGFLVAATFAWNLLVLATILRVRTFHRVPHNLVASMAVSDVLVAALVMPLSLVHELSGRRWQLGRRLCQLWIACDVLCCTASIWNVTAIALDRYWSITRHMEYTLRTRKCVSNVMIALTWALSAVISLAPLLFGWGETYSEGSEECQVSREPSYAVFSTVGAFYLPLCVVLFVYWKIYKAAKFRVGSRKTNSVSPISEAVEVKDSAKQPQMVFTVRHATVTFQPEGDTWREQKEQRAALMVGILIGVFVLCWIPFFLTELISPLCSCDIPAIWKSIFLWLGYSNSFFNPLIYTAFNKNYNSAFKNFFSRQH
Test: PDSP primary binding 5-HT5A
Settings: 1.5 h; primary binding, 10,000 nM; last figure of the line = mean of the 4 before it; read-out: 5-HT5A, PDSP raw data, mean
Examples of compounds with documented inhibition at 10 µM follow.
Write down the numeric answer in % and omit the unit.

Known inhibition at 10 µM results, listed for orientation:
> print(dat)
                                        mol                       target.or.system  reported.measurement
1  CCc1noc(-c2ncn3c2[C@@H](C)N=C(c2ccccc2F)c2cc(Cl)ccc2-3)n1  5-HT5A (Homo sapiens, UniProt P47898)                 -1.84
2  CC(C)c1noc(-c2ncn3c2[C@@H](C)N=C(c2ccccc2F)c2cc(Cl)ccc2-3)n1  5-HT5A (Homo sapiens, UniProt P47898)                 -2.71
3  C#Cc1ccc2c(c1)C(c1ccccc1Cl)=N[C@H](C)c1c(C(=O)NC)ncn1-2  5-HT5A (Homo sapiens, UniProt P47898)                  2.76
4  CCc1noc(-c2ncn3c2[C@@H](C)N=C(c2ccccc2F)c2cc(-c4ccccc4)ccc2-3)n1  5-HT5A (Homo sapiens, UniProt P47898)                  19.5
5  C[C@H]1N=C(c2ccccc2F)c2cc(-c3ccccc3)ccc2-n2cnc(C(=O)N(C)C)c21  5-HT5A (Homo sapiens, UniProt P47898)                  53.6
6  C#Cc1ccc2c(c1)C(c1ccccc1F)=N[C@H](C)c1c(C(=S)N(C)C)ncn1-2  5-HT5A (Homo sapiens, UniProt P47898)                  53.6

Lookup: Quote inhibition at 10 µM reported for `C[C@H]1N=C(c2ccccc2F)c2cc(Cl)ccc2-n2cnc(-c3nc(C4CC4)no3)c21` please.
Found: -2.84

Lookup: Quote inhibition at 10 µM reported for `CCc1noc(-c2ncn3c2[C@@H](C)N=C(c2ccccc2F)c2cc(C4CC4)ccc2-3)n1` please.
Found: 23.6

====

Molecular target: Alpha4Beta4 (Rattus norvegicus, UniProt P09483+P12392)
Construct: purchased NIMH Psychoactive Drug Screening Program (PDSP)
Sequence (P09483 31-630): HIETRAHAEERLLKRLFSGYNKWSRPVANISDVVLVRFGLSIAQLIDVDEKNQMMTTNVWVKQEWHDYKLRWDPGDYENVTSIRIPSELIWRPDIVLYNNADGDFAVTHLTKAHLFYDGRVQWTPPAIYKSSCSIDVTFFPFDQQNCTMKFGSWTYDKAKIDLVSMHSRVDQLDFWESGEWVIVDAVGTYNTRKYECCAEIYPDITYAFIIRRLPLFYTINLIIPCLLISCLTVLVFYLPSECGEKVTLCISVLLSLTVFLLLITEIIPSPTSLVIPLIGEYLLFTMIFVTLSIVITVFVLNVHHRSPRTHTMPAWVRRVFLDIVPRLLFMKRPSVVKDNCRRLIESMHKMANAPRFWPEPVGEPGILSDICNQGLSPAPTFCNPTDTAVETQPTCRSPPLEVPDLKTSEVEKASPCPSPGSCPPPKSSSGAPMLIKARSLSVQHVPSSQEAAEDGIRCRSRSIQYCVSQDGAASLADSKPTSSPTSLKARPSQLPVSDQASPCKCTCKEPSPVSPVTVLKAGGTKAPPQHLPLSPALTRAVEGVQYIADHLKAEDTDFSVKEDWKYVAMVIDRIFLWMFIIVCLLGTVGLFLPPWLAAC
Sequence (P12392 21-495): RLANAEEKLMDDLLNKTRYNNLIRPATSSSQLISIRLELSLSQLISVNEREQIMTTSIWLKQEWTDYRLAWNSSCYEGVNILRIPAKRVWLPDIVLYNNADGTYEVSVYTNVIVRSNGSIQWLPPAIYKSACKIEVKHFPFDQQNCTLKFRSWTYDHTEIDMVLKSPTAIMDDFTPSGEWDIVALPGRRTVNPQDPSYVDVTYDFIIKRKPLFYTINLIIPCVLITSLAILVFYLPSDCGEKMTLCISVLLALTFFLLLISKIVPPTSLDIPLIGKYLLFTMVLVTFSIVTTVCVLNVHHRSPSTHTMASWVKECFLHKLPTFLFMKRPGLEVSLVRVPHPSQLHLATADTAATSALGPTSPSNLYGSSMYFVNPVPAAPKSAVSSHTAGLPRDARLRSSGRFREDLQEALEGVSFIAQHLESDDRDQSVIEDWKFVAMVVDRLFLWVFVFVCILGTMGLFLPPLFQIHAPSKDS
Assay: PDSP primary binding Alpha4Beta4
Settings: primary binding, 10,000 nM; last figure of the line = mean of the 4 before it; read-out: Alpha4Beta4, PDSP raw data, mean
experimental_readout: inhibition at 10 µM (%)
Write down the numeric answer in % and omit the unit.

Known inhibition at 10 µM results, listed for orientation:
> print(dat)
                                   compound  experimental.readout  unit.symbol  reported.measurement
1  C#Cc1ccc2c(c1)C(c1ccccn1)=N[C@@H](C)c1c(C(=O)N(C)C)ncn1-2 [Compound 31]   inhibition at 10 µM            %                  6.85
2  CCc1noc(-c2ncn3c2[C@@H](C)N=C(c2ccccc2F)c2cc(C4CC4)ccc2-3)n1 [Compound 46]   inhibition at 10 µM            %                  14.2

Lookup: Quote inhibition at 10 µM reported for CC(C)c1noc(-c2ncn3c2[C@@H](C)N=C(c2ccccc2F)c2cc(Cl)ccc2-3)n1 [Compound 37] please.
Found: 12.9

Lookup: Quote inhibition at 10 µM reported for C#Cc1ccc2c(c1)C(c1ccccc1Cl)=N[C@H](C)c1c(C(=O)N(C)CC)ncn1-2 [Compound 29] please.
Found: -3.3

Lookup: Quote inhibition at 10 µM reported for C[C@H]1N=C(c2ccccc2F)c2cc(Cl)ccc2-n2cnc(-c3nc(C4CC4)no3)c21 [Compound 38] please.
Found: 8.62

Lookup: Quote inhibition at 10 µM reported for CCc1noc(-c2ncn3c2CN=C(c2ccccc2F)c2cc(C4CC4)ccc2-3)n1 [Compound 44] please.
Found: 10.6

Lookup: Quote inhibition at 10 µM reported for CCc1noc(-c2ncn3c2[C@@H](C)N=C(c2ccccc2F)c2cc(Cl)ccc2-3)n1 [Compound 36] please.
Found: 10.2

Lookup: Quote inhibition at 10 µM reported for C#Cc1ccc2c(c1)C(c1ccccn1)=N[C@@H](C)c1c(C(=O)NC)ncn1-2 [Compound 23] please.
Found: 4.42

====

Examples of compounds with documented inhibition at 10 µM follow.
Molecular target: MOR (Homo sapiens, UniProt P35372)
Construct: purchased NIMH Psychoactive Drug Screening Program (PDSP)
Sequence (P35372 whole entry): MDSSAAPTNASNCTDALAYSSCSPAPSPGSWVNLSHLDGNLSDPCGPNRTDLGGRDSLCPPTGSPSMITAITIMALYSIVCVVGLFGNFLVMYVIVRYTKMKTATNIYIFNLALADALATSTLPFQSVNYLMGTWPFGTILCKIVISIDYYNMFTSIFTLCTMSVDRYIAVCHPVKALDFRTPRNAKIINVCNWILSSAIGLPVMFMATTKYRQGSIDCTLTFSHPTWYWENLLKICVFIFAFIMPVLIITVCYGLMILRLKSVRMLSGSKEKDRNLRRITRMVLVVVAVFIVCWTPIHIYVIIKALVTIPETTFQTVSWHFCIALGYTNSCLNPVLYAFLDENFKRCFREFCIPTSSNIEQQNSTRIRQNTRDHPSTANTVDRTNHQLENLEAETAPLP
Test: PDSP radioligand binding at MOR
Settings: 1.5 h; at 10,000 nM; N = 5; [3H]-DAMGO 1.20 nM; read-out: Primary Binding %MOR
Kindly format the answer as number then unit.

Known inhibition at 10 µM results, listed for orientation:
> print(dat)
                                        mol  experimental.readout  reported.measurement
1  CCc1noc(-c2ncn3c2[C@@H](C)N=C(c2ccccc2F)c2cc(Cl)ccc2-3)n1   inhibition at 10 µM                 19.2%
2  C#Cc1ccc2c(c1)C(c1ccccn1)=N[C@@H](C)c1c(C(=O)N(C)C)ncn1-2   inhibition at 10 µM                 4.55%
3  C#Cc1ccc2c(c1)C(c1ccccc1Cl)=N[C@H](C)c1c(C(=O)N(C)CC)ncn1-2   inhibition at 10 µM                 7.31%
4  CCc1noc(-c2ncn3c2[C@@H](C)N=C(c2ccccc2F)c2cc(-c4ccccc4)ccc2-3)n1   inhibition at 10 µM                 14.8%

Consider now this further compound.
Lookup: Quote inhibition at 10 µM reported for `C#Cc1ccc2c(c1)C(c1ccccc1F)=N[C@H](C)c1c(C(=S)N(C)C)ncn1-2` please.
Found: -2.4%

====

Test system: AMPA
Experiment: PDSP primary binding AMPA
Conditions: primary binding, 10,000 nM; last figure of the line = mean of the 4 before it
experimental_readout: AMPA, PDSP raw data, mean (%)
Write down the numeric answer in % and omit the unit.

Known AMPA, PDSP raw data, mean results, listed for orientation:
> print(dat)
                                        mol  unit.symbol  reported.measurement
1  CCc1noc(-c2ncn3c2[C@@H](C)N=C(c2ccccc2F)c2cc(C4CC4)ccc2-3)n1            %                  0.81
2  C[C@H]1N=C(c2ccccc2F)c2cc(Cl)ccc2-n2cnc(-c3nc(C4CC4)no3)c21            %                 21.42
3  CCc1noc(-c2ncn3c2[C@@H](C)N=C(c2ccccc2F)c2cc(Cl)ccc2-3)n1            %                -24.14

Consider now this further compound.
Lookup: Quote AMPA, PDSP raw data, mean reported for `C#Cc1ccc2c(c1)C(c1ccccc1Cl)=N[C@H](C)c1c(C(=O)NC)ncn1-2` please.
Found: -31.95
